- assay.name: chemical genetic growth profiling, strain panel (AID 1159580);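 also: tested at 20 µM; growth read once vehicle control cultures reached saturation at 30 °C; 1 = growth at the plate median or of vehicle wells; lower values mean less growth of the strain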
- experimental.conditions: S. cerevisiae deletion strains, growth OD, locus YGL253W, strain hxk2, stronger effect = lower value
Screen size: about 5,500 compounds; about 2,000 (36%) were called active. Roughly 18% stayed inconclusive and do not appear here. The list shows a part of the results.
measured.metric: normalized growth
Just the number.

Here are 6 compounds together with their reported answers.
compound | normalized growth
O=[N+]([O-])c1ccc(O)c([N+](=O)[O-])c1 | 0.717
O=C1O[C@H](C(O)CO)C(O)=C1O (stereo partly specified) | 0.992
Oc1c(Br)cc(Br)c2cccnc12 | 0.0544
COc1cc(C(=O)NCc2ccc(OCCN(C)C)cc2)cc(OC)c1OC | 0.993
CC(C)NCC(O)c1ccc(O)c(O)c1 (stereo unspecified) | 0.999
OC[C@@H](O)[C@@H](O[C@@H]1O[C@H](CO)[C@@H](O)[C@H](O)[C@H]1O)[C@H](O)[C@@H](O)CO | 0.999

In plain terms, `CC(=O)Nc1cc([As](=O)(O)O)ccc1O` has a documented normalized growth of 1.02

* * *

- assay.name: chemical genetic growth profiling, strain panel (AID 1159580)
- experimental.conditions: S. cerevisiae deletion strains, growth OD, locus YER155C, strain BEM2 (second series), stronger effect = lower value
The campaign covered roughly 5,500 compounds. About 2,000 (36%) were called active. About 18% were inconclusive and are not listed. This is one part of the list.
# reported normalized growth; entries follow
Just the number.

Here are 5 compounds together with their reported answers.
compound | normalized growth
C/C=C/c1ccc2c(c1)OCO2 | 0.997
CC(=O)Oc1ccc(Cl)c2cccnc12 | 0.094
CC(=O)Nc1cc([As](=O)(O)O)ccc1O | 0.982
CCC(Cc1c(I)cc(I)c(N)c1I)C(=O)O (configuration not stated) | 0.94
CCOP(=S)(OCC)SCn1c(=O)oc2cc(Cl)ccc21 | 0.952

In plain terms, `O=[N+]([O-])c1cc(O)c(O)c([N+](=O)[O-])c1` has a documented normalized growth of 0.992

In plain terms, `Oc1c(I)cc(I)c2cccnc12` has a documented normalized growth of 0.126

* * *

- assay.name: chemical genetic growth profiling, strain panel (AID 1159580)
- experimental.conditions: S. cerevisiae deletion strains, growth OD, locus YLR330W, strain CHS5, stronger effect = lower value
In all, about 5,500 compounds went through this assay and about 2,000 (36%) were called active. About 18% were inconclusive and are not listed. Some of the results follow.
measured.metric: normalized growth
Just the number.

mol | normalized growth
C/C=C/c1ccc2c(c1)OCO2 | 1.02
C[n+]1cccc(C(=O)[O-])c1 | 1.02
O[N+]1=CC=CCC1=S.On1ccccc1=S.[Zn] | 0.0529
CC(=O)NCCCCCC(=O)O | 1.01
COc1cc2c(c(OC)c1OC)-c1ccc(O)c(=O)cc1[C@@H](NC(C)=O)CC2 | 0.886

In plain terms, `COc1cc2c(c(OC)c1OC)-c1ccc(OC)c(=O)cc1[C@@H](NC(C)=O)CC2` has a documented normalized growth of 1.02

* * *

- assay.name: chemical genetic growth profiling, strain panel (AID 1159580)
- experimental.conditions: S. cerevisiae deletion strains, growth OD, locus YDR388W, stronger effect = lower value
Out of some 5,500 compounds screened, about 2,000 (36%) were called active. Inconclusive results (about 18%) are left out. The list shows a part of the results.
# reported normalized growth; entries follow
Just the number.

In plain terms, `CNC[C@@H](O)c1ccc(O)c(O)c1` has a documented normalized growth of 0.99

In plain terms, `O=C1C=CC2=C3c4cc(O)c(O)cc4C[C@@]3(O)COC2=C1` has a documented normalized growth of 1

In plain terms, `COc1cc2c(c(OC)c1OC)-c1ccc(OC)c(=O)cc1[C@@H](NC(C)=O)CC2` has a documented normalized growth of 1.03

In plain terms, CC(C)NCC(O)c1ccc(O)c(O)c1 (stereo not drawn) has a documented normalized growth of 0.994

In plain terms, CC(=O)c1c(O)c(C)c(O)c2c1OC1=CC(=O)C(C(C)=O)C(=O)C12C (stereo not drawn) has a documented normalized growth of 0.976

In plain terms, `c1ccc2c3c([nH]c2c1)CNCC3` has a documented normalized growth of 0.997

In plain terms, `NC[C@H](O)c1ccc(O)c(O)c1` has a documented normalized growth of 1.02

In plain terms, `COC(C)(C)CCC[C@H](C)C/C=C/C(C)=C/C(=O)OC(C)C` has a documented normalized growth of 1.02

* * *

- assay.name: chemical genetic growth profiling, strain panel (AID 1159580)
- experimental.conditions: S. cerevisiae deletion strains, growth OD, locus YDR297W, strain sur2, stronger effect = lower value
Hit rate of the full screen: of about 5,500 compounds, about 2,000 (36%) were called active. Inconclusive results (about 18%) are left out. This is one part of the list.
# reported normalized growth; entries follow

Here are 5 compounds together with their reported answers.
compound | normalized growth
Nc1ncnc2c1ncn2C1O[C@H](COP(=O)(O)O)[C@@H](O)[C@H]1O (stereo partly drawn) | 1.01 (inactive)
Nc1ncnc2c1ncn2C1C[C@H](O)[C@@H](CO)O1 (stereo partly drawn) | 1.01 (inactive)
O=C(O)c1ccccc1Nc1cccc(C(F)(F)F)c1 | 0.849 (active)
Nc1ncn([C@@H]2O[C@H](CO)[C@@H](O)[C@H]2O)c(=O)n1 | 0.993 (inactive)
CC(C)NCC(O)c1ccc2ccccc2c1 (stereo not drawn) | 0.998 (inactive)

In plain terms, O=c1[nH]c(=O)n(C2C[C@@H](O)[C@@H](CO)O2)cc1F (stereo partly drawn) has a documented normalized growth of 0.998 (inactive)

In plain terms, `CC(=O)Oc1ccc(Cl)c2cccnc12` has a documented normalized growth of 0.0582 (active)

In plain terms, `CCOC(=O)c1oc2c(OC)c(O)cc(O)c2c(=O)c1-c1cc(OC)c(OC)c(OC)c1` has a documented normalized growth of 0.979 (inactive)

In plain terms, CC(C)(C)NCC(O)c1ccccc1Cl (stereo not drawn) has a documented normalized growth of 1.01 (inactive)

In plain terms, `CC(=O)NCCCS(=O)(=O)O` has a documented normalized growth of 1.01 (inactive)

In plain terms, `O=C(O)C1=CCNCC1` has a documented normalized growth of 1.01 (inactive)

In plain terms, `O=C(O)CF` has a documented normalized growth of 1.03 (inactive)

In plain terms, O=C1O[C@H](C(O)CO)C(O)=C1O (stereo partly drawn) has a documented normalized growth of 0.992 (inactive)

* * *

# reported normalized growth; entries follow
- assay.name: chemical genetic growth profiling, strain panel (AID 1159580);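 also: tested at 20 µM; growth read once vehicle control cultures reached saturation at 30 °C; 1 = growth at the plate median or of vehicle wells; lower values mean less growth of the strain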
- experimental.conditions: S. cerevisiae deletion strains, growth OD, locus YBR023C, strain chs3, stronger effect = lower value
About 2,000 (36%) of roughly 5,500 compounds were called active. Not shown: some 18% with an inconclusive outcome. This is one part of the list.
Just the number.

In plain terms, C[C@H]1[C@H]2CCC3C4CC=C5C[C@@H](N(C)C)CC[C@]5(C)C4CC[C@@]32CN1C (stereo not given in full) has a documented normalized growth of 0.994

In plain terms, `CC(=O)Nc1cc([As](=O)(O)O)ccc1O` has a documented normalized growth of 1.01

In plain terms, CC(=O)c1c(O)c(C)c(O)c2c1OC1=CC(=O)C(C(C)=O)C(=O)C12C (stereo not given) has a documented normalized growth of 0.978

* * *

- assay.name: chemical genetic growth profiling, strain panel (AID 1159580);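 also: tested at 20 µM; growth read once vehicle control cultures reached saturation at 30 °C; 1 = growth at the plate median or of vehicle wells; lower values mean less growth of the strain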
- experimental.conditions: S. cerevisiae deletion strains, growth OD, locus YFL009W, strain cdc4, stronger effect = lower value
The campaign covered roughly 5,500 compounds. About 2,000 (36%) were called active. Roughly 18% stayed inconclusive and do not appear here. This is one part of the list.
# reported normalized growth; entries follow
Just the number.

Here are 5 molecules together with their reported answers.
mol | normalized growth
Cn1c(CSCCOc2ccccc2)nnc1SCc1ccc(Cl)cc1Cl | 0.983
N#CC(C#N)=C/C=C(/Sc1nc2ccccc2s1)c1ccc(Br)cc1 | 0.317
Fc1cccc(Cl)c1CSc1nncn1-c1ccc(OCc2ccccc2)cc1 | 1.01
C=CCOc1ccc(/C=C/[N+](=O)[O-])cc1 | 0.0895
O=[N+]([O-])c1cc(Br)cnc1Sc1nnc(SCC2CC2)s1 | 0.93

In plain terms, `CC(=O)Nc1ccc(/C=C/[N+](=O)[O-])cc1` has a documented normalized growth of 0.974

* * *

- assay.name: chemical genetic growth profiling, strain panel (AID 1159580);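 also: tested at 20 µM; growth read once vehicle control cultures reached saturation at 30 °C; 1 = growth at the plate median or of vehicle wells; lower values mean less growth of the strain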
- experimental.conditions: S. cerevisiae deletion strains, growth OD, locus YNL207W, strain RIO2, stronger effect = lower value
Among all 5,500 compounds or so, about 2,000 (36%) were called active. Not shown: some 18% with an inconclusive outcome. This is one part of the list.
measured.metric: normalized growth
Just the number.

Here are 3 molecules together with their reported answers.
mol | normalized growth
N#CC(C#N)=C/C=C(/Sc1ccc(F)c(Cl)c1)c1ccc(Cl)cc1 | 0.938
Cc1c2c(=O)[nH]ncc2c(-c2ccccc2)n1-c1ccc([N+](=O)[O-])cc1 | 1
Fc1cccc(F)c1NC(=S)Nc1cc(C(F)(F)F)cc(C(F)(F)F)c1 | 0.985

In plain terms, `Cc1cccc(Cl)c1/C=N\NC(N)=S` has a documented normalized growth of 0.845

In plain terms, `COC(=O)C1=C(C)NC(C)=C(C(=O)OC)C1c1ccc(Cl)cc1Cl` has a documented normalized growth of 0.973

In plain terms, `FC(F)(F)c1cccc(NC(=S)Nc2ccccc2)c1` has a documented normalized growth of 0.967

In plain terms, `S=C(N/N=C\c1ccc(Cl)cc1)N/N=C\c1ccc(Cl)cc1` has a documented normalized growth of 0.955

In plain terms, `O=C(NC(=O)c1c(F)cccc1Cl)OCc1ccc(Cl)cc1Cl` has a documented normalized growth of 0.966

In plain terms, `Cn1c(CSCCOc2ccccc2)nnc1SCc1ccc(Cl)cc1Cl` has a documented normalized growth of 1

In plain terms, `O=C(NCCSCc1cccc(C(F)(F)F)c1)Nc1cccc(C(F)(F)F)c1` has a documented normalized growth of 1.01

In plain terms, `FC(F)(F)c1cccc(NNC(=S)Nc2ccccc2)c1` has a documented normalized growth of 0.998
